Listed next: entries and their corresponding growth inhibition.
- PROTOCOL_DETAILS: NCI Yeast Anticancer Drug Screen. Data for the rad50 strain (AID 155);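 note: 0% = growth of vehicle-only cultures of the same strain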
- REPORTED_CONDITIONS: S. cerevisiae rad50 strain growth inhibition; at 11.0 µM; active compounds read high
The panel holds about 79,000 compounds, 15% with a hit somewhere; the sample as a whole holds those more often. Residues, ends and D or L forms follow the SMILES beside them. *: point of attachment. CH2Cl = ClC*
QUANTITY_KIND: growth inhibition (%)

COMPOUND	MEASUREMENT
N#CC(=C1C=CC(=NO)C=C1)c1ccccc1	98
O=c1ccc(N=Nc2ccccc2)ccc1O	97
O=C(Nc1ccc2c(c1)Cc1c-2ccc([N+](=O)[O-])c1F)C(F)(F)F	4
CCOC(=O)C(NC(=O)CC)(N1CCN(c2cc3c(cc2F)c(=O)c(C(=O)O)cn3C2CC2)CC1)C(F)(F)F (centres undefined)	47
CCCCCCCCCCCc1nc(N)n[nH]1	-7
N#C/C(=C\c1ccccc1)c1ccccc1F	-2
[N-]=[N+]=NC(c1ccccc1)(c1ccccc1)c1ccccc1	6
CC1=CC2C(C(C)C)CC1C1C(=O)OC(=O)C21 (centres undefined)	-12
CCc1[nH]nc(C(N)=O)c1N=NN(C)C	49
CC(=O)C1(O)Cc2c(O)c3c(c(O)c2C(OC2CC(N)C(O)C(C)O2)C1)C(=O)c1ccccc1C3=O (centres undefined)	94
C/C(=N\NC(=S)NC1CCCC1)c1ccccn1	98
CSc1s[s+]c(SC)c1-c1ccccc1	11
CO[C@@]12[C@H](COC(N)=O)C3=C(C(=O)C(C)=C(N)C3=O)N1C[C@@H]1N[C@@H]12	38
OCCN(CCO)c1ccc2c(c1)Cc1ccccc1-2	-13
O=C1CC(=O)N(C2CCCCC2)C(=O)N1c1ccccc1S(=O)(=O)Oc1ccccc1	-12
N#CSC1CCCCNC1=O (centres undefined)	36
Nc1nc(N)c2cc(Sc3ccc4ccccc4c3)ccc2n1	90
OB(O)c1ccccc1C#Cc1ccccc1B(O)O	47
Cc1ccc2c(ccc(/C=C/c3ccc(O)c4ncccc34)[n+]2C)c1	88
O=Cc1coc2ccccc2c1=O	17
CC(=O)NC(CC(C)C)C(=O)NC(Cc1ccccc1)C(=O)CCl (stereo not drawn) (Ac-Leu-Phe-CH2Cl; configuration not given here)	6
NC(=O)N1c2ccccc2C=Cc2ccccc21	-24
Oc1ccc(Br)cc1C=NC1CCCCC1	49
CCCCCCCCN1C(=O)c2ccccc2C1=O	6

###

- PROTOCOL_DETAILS: NCI Yeast Anticancer Drug Screen. Data for the mec2-1 strain (AID 157)
- REPORTED_CONDITIONS: S. cerevisiae mec2-1 strain, at 50.0 µM (retest, dose inferred, filed as 5.0)
Compounds without any hit were thinned out: in the full panel of roughly 79,000, 15% have a hit. Active and inactive are the calls of the source. Cut-off read from the data, not from the text of the source: active = growth inhibition above about 70%; inactive = the rest.
Classes used: active, inactive

STRUCTURE_NOTATION	CATEGORY
Nc1cc(F)cc2c1-c1ccc(F)cc1C2	inactive
CCCCOC(=O)CSSCC(=O)OCCCC	active
OCCN(CCO)c1ccc2c(c1)Cc1ccccc1-2	inactive
CCOc1ccc(C(=O)CCC(=O)O)c(C)c1	inactive
CCOC(=O)CNC(=O)c1[nH]cnc1/N=N/N(C)C	inactive
CN(CC(=O)O)c1ccc(/C=C/c2ccnc3ccccc23)cc1	inactive
CCn1ncc(N=O)c1N	inactive
O=[N+]([O-])c1c(/C=N/Nc2ccccc2)oc(-c2ccc3c(c2)OCO3)c1-c1ccc2c(c1)OCO2	inactive
O=C(CCc1ccccc1)ON1C(=S)C(c2ccccc2)(c2ccccc2)N=C1Sc1ccccc1	active
CCCCCCCCCCCCCCCCNC(=O)/C(=C\c1ccc(Cl)c(Cl)c1)NC(=O)c1ccccc1	inactive
[N-]=[N+]=NC(c1ccccc1)(c1ccccc1)c1ccccc1	active

###

- PROTOCOL_DETAILS: NCI Yeast Anticancer Drug Screen. Data for the wt2 strain (AID 169);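 note: 0% = growth of vehicle-treated yeast cultures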
- REPORTED_CONDITIONS: S. cerevisiae wt2 strain growth inhibition; at 1.2 µM; active compounds read high
About 79,000 compounds went through this panel and 15% of them were active in at least one assay; those are over-represented in the sample as a whole.
Catalogue of compounds with associated growth inhibition
QUANTITY_KIND: growth inhibition (%)

COMPOUND	MEASUREMENT
ClCCn1c(CCl)nc2ccc(Cl)cc21	-10
CCOC(=O)C1=C(C)NC(C)=C(C(=O)OCC)C1c1ccccc1Cl	14
CC1=CCC(C(C)(C)c2ccc(O)cc2)CC1 (centres undefined)	-41
CCc1nc(N)nc(N)c1-c1ccc(NCCCCCCN)c([N+](=O)[O-])c1	-1
CCCCC(=O)c1c(O)nc2sccn2c1=O	7
COc1ccc(S(=O)(=O)N/N=C\c2cc([N+](=O)[O-])cc(I)c2O)c(OC)c1OC	-7
C/C=C/[P+](c1ccccc1)(c1ccccc1)c1ccccc1	-1
Cc1ccc(Nc2c3c(c(C#N)c4nc5ccccc5n24)CCCC3)cc1	4
CSc1s[s+]c(SC)c1-c1ccccc1	-26
Cc1c(-c2ccccc2)[nH]c2ccccc12	10
O=C(Nc1ccc2c(c1)Cc1c-2ccc([N+](=O)[O-])c1F)C(F)(F)F	2
COc1cc(N(C)C)ccc1/C=C\c1ccnc2ccccc12	-4
Clc1cc(Cc2ccc(N=C/C=C/c3ccccc3)c(Cl)c2)ccc1N=C/C=C\c1ccccc1	-11
OCCNCCOc1ccc(/C(=C(/Cl)c2ccccc2)c2ccccc2)cc1	-47
O=[N+]([O-])c1cccc2nc3ccccc3c(NCCc3cccc[n+]3[O-])c12	1
CN=C(N)N/N=C(\C)c1ccc2oc3ccc(/C(C)=N/NC(N)=NC)cc3c2c1	-4
Cc1ccccc1NC(=O)Cc1csc(N/N=C2\NC(=O)/C(=C/c3cccc([N+](=O)[O-])c3)S2)n1	2
c1ccc2c(c1)Cn1c-2nc2ccccc21	-24
COc1ccc2c(c1)[nH]c1c(/C=C/c3ccccc3)nccc12	-36
Cc1nc2c(ncn2CCO)c(=O)[nH]1	-15
COc1cccc(C(c2cc3c(cc2O)OCO3)N2CCOCC2)c1OC (centres undefined)	-3
Cc1cc(Cl)ccc1NC(=O)/C(Cl)=C1/Sc2ccccc2NC1=O	-2
OB(O)c1ccccc1C#Cc1ccccc1B(O)O	-1
CCCCCCCCCCCCCC(=O)OC(C)CCC1CCCO1 (centres undefined)	-3

###

- PROTOCOL_DETAILS: NCI Yeast Anticancer Drug Screen. Data for the rad14 strain (AID 159);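 note: 0% = growth of vehicle-treated control cultures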
- REPORTED_CONDITIONS: S. cerevisiae rad14 strain growth inhibition; at 33.0 µM; active compounds read high
About 79,000 compounds went through this panel and 15% of them were active in at least one assay; those are over-represented in the sample as a whole.

COMPOUND	growth inhibition, %
O=C(/C=C\c1ccc([N+](=O)[O-])o1)Nc1ccc(Cl)cc1	94
COc1ccc(/C=C(\NC(=O)c2ccccc2)C(=O)NN(C)c2ccnc3cc(Cl)ccc23)cc1OC	8
O=C(/C=C/c1cccc2ccccc12)c1ccc(Cl)cc1	-38
O=C1C=CC(=O)N1c1ccc(N2C(=O)C=CC2=O)cc1	100
O=[N+]([O-])/C(C(Cl)=C(Cl)Cl)=C1/OCCS1	99
CC(=O)C1(O)Cc2c(O)c3c(c(O)c2C(OC2CC(N)C(O)C(C)O2)C1)C(=O)c1ccccc1C3=O (configuration not stated)	96
O=Nn1c2ccccc2c2cc([N+](=O)[O-])ccc21	61
O=C(Nc1cccc(C(F)(F)F)c1)Oc1ccc(Cl)cc1C(=O)c1ccccc1	64
C=Cc1cnc([N+](=O)[O-])n1C	96
O=C(O)c1[nH]c(=O)c2ccccc2c1Nc1ccccc1	1
C/C=C/[P+](c1ccccc1)(c1ccccc1)c1ccccc1	63
COCCCN(Cc1cc(OC)c(OC)c(OC)c1)C(=S)Nc1cccc(Cl)c1	-32
CC(=O)CC(=O)/C=C/c1cccs1	8
CN(NC(=O)/C(=C/c1ccc(O)cc1)NC(=O)c1ccccc1)c1ccnc2cc(Cl)ccc12	38
N#C/C(=C1C=C/C(=N/O)c2ccccc2/1)c1ccccc1	55
Cc1onc(-c2ccccc2Cl)c1C1=N/C(=C/c2cc(Cl)cc(Cl)c2O)C(=O)O1	-46
CC(C)(O)c1ccccc1C(c1ccccc1)c1ccccc1	3
COc1ccc2c(c1)[nH]c1c(/C=C/c3ccccc3)nccc12	71
CC1CCC2(C(=O)O)CCC3(C)C(=CCC4C5(C)CC(O)C(O)C(C)(CO)C5C(O)CC43C)C2C1C (configuration not stated)	6
O=C(NCCCCCN1CCC2(CCCCC2)CC1)C(C1CCCCC1)C1CCCCC1	99
N#C/C(=C\c1ccccc1)c1ccccc1F	1
CN(N=O)c1ccc(/C=C/c2ccnc3ccccc23)cc1	24

###

- PROTOCOL_DETAILS: NCI Yeast Anticancer Drug Screen. Data for the rad50EPP+ strain (AID 151);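 note: 0% = growth of vehicle-treated control cultures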
- REPORTED_CONDITIONS: S. cerevisiae rad50 mutant strain, at 3.7 µM, active compounds read high
The panel holds about 79,000 compounds, 15% with a hit somewhere; the sample as a whole holds those more often.
QUANTITY_KIND: growth inhibition (%)

COMPOUND	QUANTITY_KIND	UNIT_OF_MEASURE	MEASUREMENT
NNC(=S)Nc1cccc2ccccc12	growth inhibition	%	-52
COc1ccc(N2CN(C)CSC2=S)cc1	growth inhibition	%	10
C/C=C/[P+](c1ccccc1)(c1ccccc1)c1ccccc1	growth inhibition	%	2
N#C/C(=C/c1c(Cl)cccc1Cl)C(N)=O	growth inhibition	%	-29
CC(=O)Oc1ccc(C(=O)c2ccccc2)c(O)c1	growth inhibition	%	20
COc1ccc(/C=C(\NC(=O)c2ccccc2)C(=O)NN(C)c2ccnc3cc(Cl)ccc23)cc1OC	growth inhibition	%	20
Cc1onc(-c2ccccc2Cl)c1C1=N/C(=C/c2cc(Cl)cc(Cl)c2O)C(=O)O1	growth inhibition	%	-28
NP1(Oc2ccc(F)cc2)=NP(N)(Oc2ccc(F)cc2)=NP(Oc2ccc(F)cc2)(Oc2ccc(F)cc2)=N1 (stereo not drawn)	growth inhibition	%	-2
CN(C)CCNc1cccc2sc3ccc(O)cc3c(=O)c12	growth inhibition	%	11
CCOC(=O)C(NC(=O)CC)(N1CCN(c2cc3c(cc2F)c(=O)c(C(=O)O)cn3C2CC2)CC1)C(F)(F)F (stereo not drawn)	growth inhibition	%	1
CCc1nc(N)nc(N)c1-c1ccc(NCCCCCCN)c([N+](=O)[O-])c1	growth inhibition	%	-3
COc1ccc(SCc2cc(OC)ccc2OC)cc1	growth inhibition	%	18
O=C(/C=C/c1cccc(Br)c1)c1ccc(Cl)cc1	growth inhibition	%	-22
COC(=O)c1cccc(C)c1C(=O)c1c(C)cc(C)cc1C	growth inhibition	%	6
CCCCCC#CCOC(=O)C(=[N+]=[N-])P(=O)(c1ccccc1)c1ccccc1	growth inhibition	%	13
Cc1cc(Cl)nc2nc(Cl)c(N)cc12	growth inhibition	%	-17
Nc1cc(S(N)(=O)=O)ccc1SSc1ccc(S(N)(=O)=O)cc1N	growth inhibition	%	2
N#Cc1sc2c(c1OC(=O)c1ccco1)c(=O)n(-c1ccccc1)c(=S)n2-c1ccccc1	growth inhibition	%	6
CC(=O)[O-].O=C([CH-]C(=O)c1ccccc1)c1ccccc1.O=C([CH-]C(=O)c1ccccc1)c1ccccc1.[Sm+3]	growth inhibition	%	70
O=C1C(Cl)=C(Cl)C(Cl)(Cl)C(Cl)C1(Cl)Cl (stereo not drawn)	growth inhibition	%	34
CC1=CC2C(C(C)C)CC1C1C(=O)OC(=O)C21 (stereo not drawn)	growth inhibition	%	-20
CC(C)(O)c1ccccc1C(c1ccccc1)c1ccccc1	growth inhibition	%	-4
COc1ccc(N2C(=O)CC(Cl)C2=O)cc1 (stereo not drawn)	growth inhibition	%	-18
